Overview of reported Binding Score across a group of binders:
test-target: T1, Soluble CD28-Ig (extracellular domain of human CD28 fused to the Fc portion of human IgG1) (human, UniProt P10747 19-152, biotin-conjugated (NHS-biotin) in the FACS binding assays)
T1 construct: extracellular domain; bought from R&D Systems; also called sCD28-Ig; CD28-Ig Fc; not shown: Fc portion of human IgG1
assay-comment: competitive FACS on transfected cells, biotin-sCD28-Ig with FITC-sCTLA-4-Ig; grade 0-2 of CD28/CTLA-4 ratio vs WT hB7-1
# print the numeric value only

Consider the following illustrative entries.
{"binder": "Round 1 (R1) CD28BP-71 (ligand, also called R1clone71; Clone 71) ITPKSVTKRVKETVMLSCDYNTSTEELTSLRIYWQKDSKMVLAILPGKVQVWPEYKNRTITDMNDNPRIVILALRLSDSGTYTCVIQKPVLKGAYKLEHLASVRLMIRADFPVPTINDLGNPSPNIRRLICSTSGGFPRPHLYWLENGEELNATNTTLSQDPETKLYMISSELDFNMTSNHSFLCLVKYGDLTVSQTFYWQESKPTPSANQHLTWTIIIPVSAFGISVIIAVILTCLTCRNAAIRRQRRENEVEMQSCSQSP", "Binding Score": 1}
{"binder": "Round 2 CD28F3-6 (ligand) ITPKSVTKRVKETVMLSCDYSTSTEELTSLRIYWQKDSKMVLAILPGKVQVWPEYKNRTITDMNDNPRIVILALRLSDSGTYTCVIQKPDLKGAYKLEHLTSVRLMIRADFPVPTINDLGNPSPNIRRLICSTSGGFPRPHLYWLENGEELNATNTTLSQDPETKLYMISSELDFNVTNNHSIVCLIKYGELSVSQIFPWSKPKQEPPIDQLPFWVIIPVSGALVLTAVVLYCLACRHVARWKRTRRNEETVGTERLSPIYLGSAQSSG", "Binding Score": 0}
{"binder": "Round 1 CD28BP-84 (ligand, also called R1clone 84; Clone 84) GISQVTKSVKEMAALSCDYNISIDELARMRIYWQKDQQMVLSIISGQVEVWPEYKNRTFPDIINNLSLMILALRLSDKGTYTCVVQKNENGSFRREHLTSVTLSIRADSPVPSITDIGHPAPNVKRIRCSASGGFPEPRLAWMEDGEELNAVNTTVDQDLDTELYSVSSELDFNVTNNHSIVCLIKYGELSVSQIFPWSKPKQEPPIDQLPFWVIIPVSGALVLTAVVLYCLACRHVARWKRTRRNEETVGTERLSPIYLGSAQSSG", "Binding Score": 1}

Inquiry: Quote Binding Score reported for Round 2 CD28D12-5 (ligand) ITPKSVTKRVKETVMLSCDYSTSTEELTSLRIYWQKDSKMVLAILPGKVQVWPEYKNRTITDMNDNPRIVILALRLSDSGTYTCVIQKPVLKGAYKLEHLASVRLMIRADFPVPSITDIGHPAPNVKRIRCSASGDFPEPRLAWMEDGEELNAVNTTVLDTELYSVSSELDFNVTNNHSIVCLIKYGELSVSQIFPWSKPKQEPPIDQLPFWVIIPVSGALVLTAVVLYCLACRHVARWKRTRRNEETVGTERLSPIYLGSAQPSG please.
Reply text: 2

Inquiry: Tell us which Binding Score value is on record for Round 2 CD28C6-1 (ligand) ITPKSVTKRVKETVMLSCDYSTSTEELTSLRIYWQKDSKMVLAILPGKVQVWPEYKNRTITDMNDNPRIVILALRLSDSGTYTCVIQKPVLKGAYKLEHLASVRLMIRADFPVPTINDLGNPSPNIRRLICSTSGGFPRPHLYWLENGEELNATNTTVSQDPGTELYMISSELDFNVTNNHSIVCLIKYGELSVSQIFPWSKPKQEPPIDQLPFWVIIPVSGALVLTAVVLYCLACRHGARWKRTRRNEETVGTERLSPIYLGSAQSSG
Reply text: 1

Inquiry: Output measured Binding Score for this item: Round 2 CD28BP-2 (ligand) ITPKSVTKRVKETVMLSCDYSTSTEELTSLRIYWQKDSKMVLAILPGKVQVWPEYKNRTITDMNDNPRIVILALRLSDSGTYTCVIQKPVLKGAYKLEHLASVRLMIRADFPVPTINDLGNPSPNIRRLICSTSGGFPRPHLYWLENGEELNATNTTLSQDPETKLYMISSELDFNVTNNHSIVCLIKYGELSVSQIFPWSKPKQEPPIDQLPFWVIIPVSGALVLTAVVLYRPACRHVARWKRTRRNEETVGTERLSPIYLGSAQSSG
Reply text: 2
